meta.source: the supplement of paper PMC9170038

Parameter: apparent KD of MS2 coat protein. Scope: all listed entries.
- System: MS2 coat protein
- testName: apparent KD of MS2 coat protein; designed switch direction (-1 OFF switch, 1 ON switch): -1; higher = weaker reporter binding
- runParameters: input ligand: none
Unit nM implied. Number only.

Here is how some sequences turned out for apparent KD of MS2 coat protein.
{"columns": ["residues", "apparent KD of MS2 coat protein / nM"],
 "data": [
  ["AGGUCACAUGAGGAUCACCCAUGUGAGGAUAUUUACUCAAGAGCUUCGGCUCUCAAGUGAAGAAGGCGCAAUGA [EX1 #53] (Eterna round: R97, puzzle: Exclusion 1)", 32.8],
  ["GGUAUGGCCACAGGAUAUUGAGCCACAUGAGGAUCACCCAUGUGAGGACGUAGAAUCGCCUGGCCCAAGAAGGGUGAAGCCCAU [Eternabot solution 4] (Eterna round: R96, puzzle: Exclusion NG 2)", 28],
  ["UAUAAAGGCUCAGGAUAUGGUGCGUCACAUGAGGAUCACCCAUGUAACGUGGCGGAACCUGCGCGCUAGAAGGGAGUAGCGAAA [Laensoqu] (Eterna round: R96, puzzle: Exclusion NG 2)", 10.7],
  ["UACAUGAGGAUCACCCAUGUUUUGUCGUGUAUGGUAUUUAUCUAGGAUAUCAAUCUAUUUAAUUAUGAGAAGGAGAAUAUUAAU [JMF's solution 53] (Eterna round: R96, puzzle: Exclusion NG 3)", 39.3],
  ["GUUGUACAUGAGGAUCACCCAUGUCAGGAUAUCCACCUCAGAAAGUAUACAGGAUUGUGGAGAAGGGACAUUAA [EX1 C.18] (Eterna round: R97, puzzle: Exclusion 1)", 48.5],
  ["UCCAGGCGAGGAUAUACAAAGAUUUUUUCGUUUUGUCUCGAACAUGAGGAUCACCCAUGUAGAAGGUGCUUCUG [JR_Ex2_Sub012] (Eterna round: R97, puzzle: Exclusion 2)", 115]
]}

Specify apparent KD of MS2 coat protein for AAUAAUCAUGUAGGAUAUGCGUGGCAAAGCUAUGCAGAAGGACAUGAGGAUCACCCAUGUUCUAGCGUCUGAAAACAGAUGCUA [Mat - Exclusion NG 1 - Mod of JL - D83] (Eterna round: R96, puzzle: Exclusion NG 1) and stop.
44.3

Specify apparent KD of MS2 coat protein for AUGUGACAUGAGGAUCACCCAUGUCAGGAUAUUUCCAAAAUAAAAUAAAACCGCGUGGAAAGAAGGGACGUGGC [EX1 A.4] (Eterna round: R97, puzzle: Exclusion 1) and stop.
21.9

Specify apparent KD of MS2 coat protein for CUGAACCCGGUAGGAUAUAUUGUGGGCAAGCAUGGAACGACAUGAGGAUCACCCAUGUAAUUUAGGUAGAAGGGCCGAGAGAUU [Excl-NG2-LRO11] (Eterna round: R96, puzzle: Exclusion NG 2) and stop.
67.3

----------
- Tested on: MS2 coat protein
- testName: apparent KD of MS2 coat protein; designed switch direction (-1 OFF switch, 1 ON switch): 1; higher = weaker reporter binding
- runParameters: Eterna round: R95; input ligand: FMN 200 uM
Parameter: apparent KD of MS2 coat protein. Scope: all listed entries.
Unit µM implied. Number only.

Here is how some sequences turned out for apparent KD of MS2 coat protein.
{"columns": ["residues", "apparent KD of MS2 coat protein [µM]"],
 "data": [
  ["AUAAAACAUGAGGAUCACCCAUGUCAACAAAGUCGAGGAUAUGGGCAAAUAAAAUAAGAACCAGAAGGCUAAUAAU [salish99_ss1_r3_052] (puzzle: Same State 1)", 0.246],
  ["UAAAUACAUGAGGAUCACCCAUGUCAAAAGACAUGAGGAUAUGUACAGACUUCGGUCUGUACAGAAGGCAUGAAAA [salish99_ss1_r3_095] (puzzle: Same State 1)", 0.0436],
  ["GUUAAACAUGAGGAUCACCCAUGUAAUAAUAUGGGAGGAUAUCAGAAAGUAUGUAUGAAAUGAGAAGGCCUAAUUG [Mat - Same State 1 - Mod of Eli - D78] (puzzle: Same State 1)", 0.0579]
]}

Specify apparent KD of MS2 coat protein for GGUCCAGCCUGAGCUGGACUACAGCAUGUACAUGAGGAUCACCCAUGUCAUGUACAAGUAUGUUGUUUGUCUUAAAA [Sensorship 7 - Jieux - Sensor for hsa-mir-208a] (puzzle: Sensor for hsa-mir-208a) and stop.
0.0808

----------
Parameter: apparent KD of MS2 coat protein. Scope: all listed entries.
- System: MS2 coat protein
- testName: apparent KD of MS2 coat protein, switch OFF state (with FMN for OFF switches, without FMN for ON switches); designed switch direction (-1 OFF switch, 1 ON switch): -1; higher = weaker reporter binding
- runParameters: FMN input: 0 or 200 uM; Eterna round: R93 (includes R88 designs)

Here is how some sequences turned out for apparent KD of MS2 coat protein.
{"columns": ["residues", "apparent KD of MS2 coat protein"],
 "data": [
  ["AAAAAACAUGAGGAUCACCCAUGUAAGGAUAUGCUGGUGCGAAAGCACAAAAAAAACAGCAGAAGGUACAAAAA [66%, Wbt, 37]", "27.5 nM"],
  ["AAAAAACAUGAGGAUCACCCAUGUAAGGAUAUGCAGAUUAUAAGAAAAAAAAAAAAAAGCAGAAGGUACAAAAA [Default title]", "28.2 nM"],
  ["GGAAAACAUGAGGAUCACCCAUGUGAGGAUAUCGAUGUCCAAAAAAAAGUGCGGGACUCGAGAAGGCACUUGGC [salish99-ex1-33]", "34.3 nM"],
  ["AAGGGACAUGAGGAUCACCCAUGUGAGGAUAUGCUAUGGAAAAUAAAAAUAAAACAUAGCAGAAGGCAUAAAAA [Denovo 9]", "44.8 nM"],
  ["AGAAAGUGAGGAUAUUCGGAUAGGAAAACGAAAACCUAUCCGAAGAAGGCACAUGAGGAUCACCCAUGUAAAAA [Mat - Exaclusion 4 - Eli mod - D38]", "37.5 nM"],
  ["AAGAACACAGGAUAUACAUGAGGAUCACCCAUGUAAAAGAAAGAAAAGGGAAAGAAAAGUAGAAGGGUGAAGAA [Nebkheperure Tutankhaten]", "51.3 nM"]
]}

Please report the measured apparent KD of MS2 coat protein for AUCUCGUCAGGAUAUGACUACAUAAAAAAAAAAAAAUGUAGUCAGAAGGGACAUGAGGAUCACCCAUGUACCAA [HSL_Exclusion 4 64% 3] tested on MS2 coat protein.
22.8 nM

----------
- Tested on: MS2 coat protein
- testName: apparent KD of MS2 coat protein; designed switch direction (-1 OFF switch, 1 ON switch): 1; higher = weaker reporter binding
- runParameters: Eterna round: R95; input ligand: microRNA oligo, concentration not stated
endpoint: apparent KD of MS2 coat protein (nM)
Unit nM implied. Number only.

Here is how some sequences turned out for apparent KD of MS2 coat protein.
{"columns": ["residues", "apparent KD of MS2 coat protein (nM)"],
 "data": [
  ["UCUUGGUUUUUGCUCGUUUUUUGUGUUGAACAUGAGGAUCACCCAUGUAUUGUACGGUCCGGUUUAAUAGUGGUCCA [JMF 43] (puzzle: Sensor for hsa-mir-208a)", 59.8],
  ["AGUCCAGCCUGAGCUGGACAAAAGCAUGUACAUGAGGAUCACCCAUGUUCAUGUACAAGCUUUUUGCUCGUCAAAAG [Mat - hsa-mir-208a - Mod of JL - 67] (puzzle: Sensor for hsa-mir-208a)", 18.3]
]}

Specify apparent KD of MS2 coat protein for AGUCCAGCAUAAGCUGGACAAAAGCAUGUACAUGAGGAUCACCCAUGUUCAUGUACAAGCUUUUUGCAAGUCAAAAU [Mat - hsa-mir-208a - Mod of JL - 82] (puzzle: Sensor for hsa-mir-208a) and stop.
18

Specify apparent KD of MS2 coat protein for GAGGCACAUGAGGAUCACCCAUGUGGGUAUAACAUAGGAUAUCACCAACAAAAUACCCGGUGAGAAGGAUGAUGCC [Ravevele] (puzzle: Same State 1) and stop.
158

Specify apparent KD of MS2 coat protein for GGUCCAGCCUGAGCUGGACAAAAGCAUGUACAUGAGGAUCACCCAUGUCAUGUGCAAGCUUUUUGCUCGUCUUAAAA [JL mod - D87 - 4] (puzzle: Sensor for hsa-mir-208a) and stop.
11

Specify apparent KD of MS2 coat protein for AUAUAACAUGAGGAUCACCCAUGUCUCUAAAGUUGAGGAUAUGGGCAGGUUAUAUCCGAACCAGAAGGCGAAUUAU [SS1 Teenbexe 7] (puzzle: Same State 1) and stop.
46.3

----------
Parameter: apparent KD of K4 kissing-loop reporter. Scope: all listed entries.
- Test system: K4 kissing-loop RNA reporter;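 note: bound reporter read as fluorescence of individual clusters on recovered sequencing chips by microscopy, with normalized cluster intensities fitted with a binding model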
- testName: apparent KD of K4 kissing-loop reporter; higher = weaker reporter binding
- runParameters: Eterna round: R107; input ligand: tryptophan 2.4 mM
Unit nM implied. Number only.

Here is how some sequences turned out for apparent KD of K4 kissing-loop reporter.
{"columns": ["residues", "unitInfo", "number"],
 "data": [
  ["GACUACCGGGCGGCCGCCACUGGGCUCCGAGUGAUGUUCGGAAAGACUCAUACACUGCUGUCAGACAGGACCGGGCCAAGGCGCA [theeternabot_sameState_KL_Trp_B_5]", "nM", 151],
  ["GGAGGGAUCUCGGCCGCCACUCAUAAGAAAUGAACCUCAGAAAUAUAGUGAUGUUAUAUAAAGAAGAGGACCGGGAGAAAGGAGG [ExTryptoB.B]", "nM", 168],
  ["GAGAAUAACGGAAGGAGCGAGUAAUGGAGUGAUGUUCCAAUCAAUAAAACACAAUAAAAUACUCAGGUAGGUCGCCGUAGUAGUU [Exclusion Argiie B GF 12]", "nM", 215],
  ["GGGCAUGUUAAAGGAUAUAGCAGGUGAUACAAGAAAGUGAGUGAUGUUUAUGUAGAUGAUGAUAUGUUAGAAGGUUAACAAAACC [abcdefghijklm]", "nM", 374],
  ["UGUCAUUGGUCGGCCGCCACUAUAAUAAAAGAGUGAUGUUCUAAAAGACGGACAAAAGUCUGUCAUAGGACCGGGACCGAUGACU [TrypBS 25 #SwitchBubble #StaticStem]", "nM", 616],
  ["UAUAAUUCGGCGGCCGCCACUGACCAUAGCCUUCGAUGGCCAGUGAUGUUGGCCUCUGGCUCUAACAGGACCGGGCCGAAUUGCG [Aririmaus]", "nM", 135]
]}

Specify apparent KD of K4 kissing-loop reporter for AGUGAUGUGGGAAGGAGCGGUAUAAGAAUUCAGUGAUGUUGAAGUGUUGCAGAAAUAAAAGGCCAGGUAGGUCGCCUAGAUGUUA [KL-XARG B29] and stop.
243

Specify apparent KD of K4 kissing-loop reporter for GGGCUAUAGUGAUGUUAUUGUCUAAACGAUACCAGUUCACCCGUGAACCCUUGGCAGCGUGGUGUAACCUAUCCUCGUUGCACUG [theeternabot_sameState_KL_Theo_A_28] and stop.
554

Specify apparent KD of K4 kissing-loop reporter for UGAUGUUUAGGUCACCCAGUGAUGUUGGAAGGAGCGUGCGAAAGCACAGGUAGGUCGCCAAUCUCCUUGUGACCUGAGCAUCUAA [#SwitchBubble 14 #K4Early] and stop.
854
